molecular target: T1, cTnI quality control product recombinant protein (human, UniProt P19429 2-210, limits assumed); assay: AMC sensor, antibody immobilised, cTnI in solution
T1 construct: treated as the same molecule; also called cTnI antigen; cardiac troponin I
T1 sequence (P19429 2-210 limits assumed): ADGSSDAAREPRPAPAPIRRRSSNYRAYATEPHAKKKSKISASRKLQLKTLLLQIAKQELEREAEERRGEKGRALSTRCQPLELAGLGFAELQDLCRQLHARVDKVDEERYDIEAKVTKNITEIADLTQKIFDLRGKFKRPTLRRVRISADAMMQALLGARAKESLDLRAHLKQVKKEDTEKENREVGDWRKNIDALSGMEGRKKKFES
reported-metric: koff (s⁻¹)
Give a bare numeral; the unit s⁻¹ is implied.

[in] Any idea what its koff is? The binder is Mutation 1-13 (antibody, V domains shown, Built as m8) VH: EVQLQQSGPELVKPGASVKMSCKASGYTFTIYVLHWVKQKPGQGLEWIGYINPYIDGTKYNEKFKGKATLTVDKSSSTAFMELSSLTSEDSAVYYCARSGYGNYGLAWLAYWGQGTLVTVSA VL: QAVVIQESALTTSPGETVTLTCRSSTGAATTSNYANWVQEKPDHLFTGLIGGSQNRAPGVPARFSGSLIGDKAALTITGAQTEDEAIYFCALVYSNNWVFGGGTKLTVLG
[out] 3.79e-06

[in] Same question for Mutation 1-21 (antibody, V domains shown, Built as m8) VH: EVQLQQSGPELVKPGASVKMSCKASGYTFTLYVVHWVKQKPGQGLEWIGYIYPYIDGTKYNEKFKGKATLTVDKSSSTAFMELSSLTSEDSAVYYCARSGYGQYGLAWLAYWGQGTLVTVSA VL: QAVVIQESALTTSPGETVTLTCRSSTGAATTSNYANWVQEKPDHLFTGLIGGSQNRAPGVPARFSGSLIGDKAALTITGAQTEDEAIYFCALVYSNQWVFGGGTKLTVLG please.
[out] 5.71e-05

[in] Same question for Mutation 1-34 (antibody, V domains shown, Built as m8) VH: EVQLQQSGPELVKPGASVKMSCKASGYTFTLYVLHWVKQKPGQGLEWIGYIQPYIDGTKYNEKFKGKATLTVDKSSSTAFMELSSLTSEDSAVYYCARSGYGNYGLAWLAYWGQGTLVTVSA VL: QAVVIQESALTTSPGETVTLTCRSSTGAATTSNYANWVQEKPDHLFTGLIGGSNNRAPGVPARFSGSLIGDKAALTITGAQTEDEAIYFCALVYSNHWVFGGGTKLTVLG please.
[out] 0.000198

[in] Same question for Mutation 1-32 (antibody, V domains shown, Built as m8) VH: EVQLQQSGPELVKPGASVKMSCKASGYTFTIYVIHWVKQKPGQGLEWIGYINPYLDGTKYNEKFKGKATLTVDKSSSTAFMELSSLTSEDSAVYYCARSGYGGYGLAWLAYWGQGTLVTVSA VL: QAVVIQESALTTSPGETVTLTCRSSTGAATTSNYANWVQEKPDHLFTGLIGGSNNRAPGVPARFSGSLIGDKAALTITGAQTEDEAIYFCALVYSNHWVFGGGTKLTVLG please.
[out] 5.3e-05

[in] Same question for Mutation 1-6 (antibody, V domains shown, Built as m8) VH: EVQLQQSGPELVKPGASVKMSCKASGYTFTIYVVHWVKQKPGQGLEWIGYIQPYLDGTKYNEKFKGKATLTVDKSSSTAFMELSSLTSEDSAVYYCARSGYGQYGLAWLAYWGQGTLVTVSA VL: QAVVIQESALTTSPGETVTLTCRSSTGAVTTSQYANWVQEKPDHLFTGLIGGSNNRAPGVPARFSGSLIGDKAALTITGAQTEDEAIYFCALVYSNNWVFGGGTKLTVLG please.
[out] 5.34e-05

[in] Same question for Mutation 1-28 (antibody, V domains shown, Built as m8) VH: EVQLQQSGPELVKPGASVKMSCKASGYTFTLYVLHWVKQKPGQGLEWIGYIYPYLDGTKYNEKFKGKATLTVDKSSSTAFMELSSLTSEDSAVYYCARSGYGNYGLAWLAYWGQGTLVTVSA VL: QAVVIQESALTTSPGETVTLTCRSSTGAATTSQYANWVQEKPDHLFTGLIGGSNNRAPGVPARFSGSLIGDKAALTITGAQTEDEAIYFCALVYSNQWVFGGGTKLTVLG please.
[out] 0.000158

[in] Same question for Mutation 1-7 (antibody, V domains shown, Built as m8) VH: EVQLQQSGPELVKPGASVKMSCKASGYTFTIYVLHWVKQKPGQGLEWIGYIQPYLDGTKYNEKFKGKATLTVDKSSSTAFMELSSLTSEDSAVYYCARSGYGNYGLAWLAYWGQGTLVTVSA VL: QAVVIQESALTTSPGETVTLTCRSSTGAVTTSNYANWVQEKPDHLFTGLIGGSQNRAPGVPARFSGSLIGDKAALTITGAQTEDEAIYFCALVYSNHWVFGGGTKLTVLG please.
[out] 0.000176

[in] Same question for Mutation 1-30 (antibody, V domains shown, Built as m8) VH: EVQLQQSGPELVKPGASVKMSCKASGYTFTIYVVHWVKQKPGQGLEWIGYIQPYLDGTKYNEKFKGKATLTVDKSSSTAFMELSSLTSEDSAVYYCARSGYGQYGLAWLAYWGQGTLVTVSA VL: QAVVIQESALTTSPGETVTLTCRSSTGAATTSQYANWVQEKPDHLFTGLIGGSNNRAPGVPARFSGSLIGDKAALTITGAQTEDEAIYFCALVYSNQWVFGGGTKLTVLG please.
[out] 0.00022

[in] Same question for Mutation 1-26 (antibody, V domains shown, Built as m8) VH: EVQLQQSGPELVKPGASVKMSCKASGYTFTIYVIHWVKQKPGQGLEWIGYIYPYLDGTKYNEKFKGKATLTVDKSSSTAFMELSSLTSEDSAVYYCARSGYGGYGLAWLAYWGQGTLVTVSA VL: QAVVIQESALTTSPGETVTLTCRSSTGAVTTSQYANWVQEKPDHLFTGLIGGSNNRAPGVPARFSGSLIGDKAALTITGAQTEDEAIYFCALVYSNQWVFGGGTKLTVLG please.
[out] 1.85e-05

[in] Same question for Mutation 1-42 (antibody, V domains shown, Built as m8) VH: EVQLQQSGPELVKPGASVKMSCKASGYTFTLYVVHWVKQKPGQGLEWIGYINPYLDGTKYNEKFKGKATLTVDKSSSTAFMELSSLTSEDSAVYYCARSGYGQYGLAWLAYWGQGTLVTVSA VL: QAVVIQESALTTSPGETVTLTCRSSTGAVTTSNYANWVQEKPDHLFTGLIGGSNNRAPGVPARFSGSLIGDKAALTITGAQTEDEAIYFCALVYSNHWVFGGGTKLTVLG please.
[out] 6.8e-05
